# Test system: SF-295 CNS
# method: NCI-60 one-dose screen, 48 h
# measurementContext: 10 µM unless noted
Compounds without any hit were thinned out: in the full panel of roughly 83,000, 20% have a hit. Activity calls are given as the source filed them. Rule for the calls: active = growth percent below 10; inactive = the rest.
Pick one: active, inactive

Problem: GET /call?item= `CC1(C)CC[C@]2(C(N)=O)CC[C@]3(C)C(=CC[C@@H]4[C@@]5(C)C/C(=C/c6ccncc6)C(=O)C(C)(C)[C@@H]5CC[C@]43C)[C@@H]2C1` returns the recorded outcome of this test.
Solution: active

Problem: GET /call?item= CCCCCCCCCN(CCCCCCCCC)C(C)C(=O)c1ccc2cc(Br)c3ccccc3c2c1 (stereo not given) returns the recorded outcome of this test.
Solution: inactive

Problem: GET /call?item= `COc1ncnc2c(-c3ccccc3)cn(COCc3ccccc3)c12` returns the recorded outcome of this test.
Solution: inactive

Problem: GET /call?item= `COc1ccc(/C=C(/C(=O)c2ccc(Cl)cc2)C(=O)C(F)(F)F)cc1` returns the recorded outcome of this test.
Solution: inactive

Problem: GET /call?item= O=C1CC(c2ccccc2)Cc2nc3ccc(Br)cc3cc21 (stereo not given) returns the recorded outcome of this test.
Solution: inactive

Problem: GET /call?item= `O=C(OCc1ccc2c(Cl)cc(Cl)c(O)c2n1)N1CCNCC1` returns the recorded outcome of this test.
Solution: inactive

Problem: GET /call?item= `Oc1ccc(N=Nc2nccs2)c(O)c1` returns the recorded outcome of this test.
Solution: inactive

Problem: GET /call?item= `CCOC(=O)Nc1ccc2c(c1)/C(=N\NC(=S)NC)c1ccccc1-2` returns the recorded outcome of this test.
Solution: inactive

Problem: GET /call?item= `CCCCCCCCCCCCCCNC(=O)Nc1ccc(Cl)c(Cl)c1` returns the recorded outcome of this test.
Solution: inactive

Problem: GET /call?item= `NC(=O)c1cccc(-c2ccc(S(=O)(=O)Nc3ccc4c(c3)N(C(=O)C3CC3)CCC4)cc2)c1` returns the recorded outcome of this test.
Solution: inactive

====

# Test system: UO-31 renal
# method: NCI-60 one-dose screen, 48 h
# measurementContext: 10 µM unless noted
Compounds without any hit were thinned out: in the full panel of roughly 83,000, 20% have a hit. Active and inactive are the calls of the source. How the source made its calls: active means growth percent below 10; inactive means the rest.
Pick one: true (active), false (inactive)

Problem: GET /call?item= `CC(C)OC(=O)Nc1cc(F)c(F)cc1F` returns the recorded outcome of this test.
Solution: false

Problem: GET /call?item= `COC(=O)[C@H](CC(C)C)NC(=O)NC(=O)NC(=O)CI` returns the recorded outcome of this test.
Solution: true

Problem: GET /call?item= `COc1cc2c(=O)[nH]c3cc([N+](=O)[O-])ccc3c2cc1[N+](=O)[O-]` returns the recorded outcome of this test.
Solution: false

Problem: GET /call?item= `CC(C)[C@H]1COC(=O)N1[C@@H]1C(=O)N([C@@H](CCC(=O)N2CCN(C3CCCC3)CC2)C(=O)N[C@@H]2CCCc3ccccc32)[C@@H]1/C=C/c1cccc(Cl)c1` returns the recorded outcome of this test.
Solution: false

Problem: GET /call?item= COc1ccc(CC(C#N)c2ccc(Cl)cc2)cc1 (stereo not drawn) returns the recorded outcome of this test.
Solution: false

Problem: GET /call?item= `C=C(C)[C@@H]1CC[C@]2(C)[C@H](CC[C@@H]3[C@@H]([C@@](C)(O)CCC=C(C)C)CC[C@]32C)[C@@]1(C)CCC(=O)N1CCN(C)CC1` returns the recorded outcome of this test.
Solution: true

Problem: GET /call?item= COc1ccc(C2CC(c3ccc4ccccc4c3)=NN2c2nc(O)c(C3=c4cc(OC)ccc4=NC3=O)s2)cc1 (stereo not drawn) returns the recorded outcome of this test.
Solution: true

Problem: GET /call?item= `CCOc1cc(/C=N\NC(=O)N/N=C/c2ccc(O)c(OCC)c2)ccc1O` returns the recorded outcome of this test.
Solution: false

Problem: GET /call?item= `C#CCC(C(=O)OCC)C(=O)OCC` returns the recorded outcome of this test.
Solution: false

Problem: GET /call?item= `C=C(C)[C@@H]1CC[C@]2(C(=O)NCCNCCNCCN)CC[C@]3(C)[C@H](CC[C@@H]4[C@@]5(C)CCC(=O)C(C)(C)[C@@H]5CC[C@]43C)[C@@H]12` returns the recorded outcome of this test.
Solution: true

Problem: GET /call?item= O=C1NC(=O)C(Cc2ccc(OCc3ccc(-c4cc(F)c(F)c(F)c4)cc3)cc2)S1 (stereo not drawn) returns the recorded outcome of this test.
Solution: false

Problem: GET /call?item= `CCc1ccc(NC(=O)N[C@@H](Cc2cc(F)cc(F)c2)C(=O)N[C@@H]2C(=O)N3C[C@H](O)C[C@H]3C(=O)N3CCOC[C@H]3C(=O)N[C@@H](C)C(=O)N3C[C@H](C)C[C@H]3C(=O)O[C@H]2C)cc1` returns the recorded outcome of this test.
Solution: false

Problem: GET /call?item= `Cc1cc(NN=C(c2ccc(O)cc2)c2ccc(O)cc2)c([N+](=O)[O-])cc1[N+](=O)[O-]` returns the recorded outcome of this test.
Solution: true

Problem: GET /call?item= `CC(C)CCNCC(C)(C)O` returns the recorded outcome of this test.
Solution: false

Problem: GET /call?item= `COc1cc(C)cc2oc3oc(=N)c(C(=O)c4ccccc4)cc3c(=O)c12` returns the recorded outcome of this test.
Solution: false

Problem: GET /call?item= `O=C1/C(=C\c2cccn2Cc2ccccc2)c2ccccc2N1c1c(Cl)cccc1Cl` returns the recorded outcome of this test.
Solution: false

Problem: GET /call?item= `CCN(CC)CCCNCc1cc(-c2ccccc2)nc2ccccc12` returns the recorded outcome of this test.
Solution: false

Problem: GET /call?item= `Nc1cc(C(=O)O)[nH]c(=S)n1` returns the recorded outcome of this test.
Solution: false

====

# Test system: 786-0 renal
# method: NCI-60 one-dose screen, 48 h
# measurementContext: 10 µM unless noted
About 83,000 compounds went through this panel and 20% of them were active in at least one assay; those are over-represented in the sample as a whole. Activity calls are given as the source filed them. How the source made its calls: active means growth percent below 10; inactive means the rest.
Pick one: YES for active, NO for inactive

Problem: GET /call?item= `COc1cc(C)cc2oc3oc(=O)c(C(=O)c4cc5cc(Br)ccc5o4)cc3c(=O)c12` returns the recorded outcome of this test.
Solution: NO

Problem: GET /call?item= `CC1=CC[C@@H]2C(C)(C)[C@@H](O)CC[C@@]2(C)[C@@H]1COc1ccc2ccc(=O)oc2c1` returns the recorded outcome of this test.
Solution: NO

Problem: GET /call?item= `COc1ccc2c(c1)c(-c1noc(C(=O)c3cn(C)c4ncc(Br)cc34)n1)cn2C` returns the recorded outcome of this test.
Solution: NO

Problem: GET /call?item= `O=C1Nc2ccccc2/C1=C/C(=O)c1ccc(N2CCOCC2)cc1` returns the recorded outcome of this test.
Solution: NO

Problem: GET /call?item= `NNC(=O)c1ccc(C(=O)NN)cc1` returns the recorded outcome of this test.
Solution: NO

Problem: GET /call?item= `COc1ncnc2c(-c3ccccc3)cn(COCc3ccccc3)c12` returns the recorded outcome of this test.
Solution: NO

Problem: GET /call?item= CC1Cc2ccc(OCCN(C)C)cc2C1=O (stereo unspecified) returns the recorded outcome of this test.
Solution: NO

Problem: GET /call?item= `C#C[C@]1(O)CC[C@H]2[C@@H]3CC=C4c5nc(Nc6ccccn6)sc5CC[C@]4(C)[C@H]3CC[C@@]21C` returns the recorded outcome of this test.
Solution: YES

Problem: GET /call?item= `C[N+](C)(C)c1ncnc2[n-]cnc12` returns the recorded outcome of this test.
Solution: NO

Problem: GET /call?item= `O=C(NNc1ccc(-c2ccccc2)nn1)c1ccc(F)cc1` returns the recorded outcome of this test.
Solution: NO

Problem: GET /call?item= `CCN1c2ccccc2C(Cl)(c2ccc(N(C)C)cc2)c2ccccc21` returns the recorded outcome of this test.
Solution: NO

Problem: GET /call?item= COc1cc2c(c(OC)c1)C1c3cc(OC)ccc3NC(=O)N1CC2 (stereo unspecified) returns the recorded outcome of this test.
Solution: NO

Problem: GET /call?item= `C#CCNC(=O)CC[C@@H](C)[C@H]1CC[C@H]2[C@@H]3CC[C@@H]4CC(=O)CC[C@]4(C)[C@H]3CC[C@]12C` returns the recorded outcome of this test.
Solution: YES

Problem: GET /call?item= `O=C(Nc1ccc(C(=O)/C=C/c2ccc(N3CCOCC3)cc2)cc1)Nc1ccc([N+](=O)[O-])cc1` returns the recorded outcome of this test.
Solution: NO

Problem: GET /call?item= `COc1ccc(NC(=O)Nc2ccc(-c3cccnc3)cc2N2CCC(CO)CC2)cc1` returns the recorded outcome of this test.
Solution: NO

Problem: GET /call?item= C#CC(OC(=O)N(C)C)(c1ccccc1)c1ccc(F)cc1 (stereo unspecified) returns the recorded outcome of this test.
Solution: NO

Problem: GET /call?item= `C=C(C)[C@@H]1CC[C@]2(C(=O)NCCCCCCN(CCCN)CCCN)CC[C@]3(C)[C@H](CC[C@@H]4[C@@]5(C)CC[C@H](OCCCN)C(C)(C)[C@@H]5CC[C@]43C)[C@@H]12` returns the recorded outcome of this test.
Solution: NO

Problem: GET /call?item= `CC1=CCc2ccccc21` returns the recorded outcome of this test.
Solution: NO

Problem: GET /call?item= `Oc1cc(Nc2ccnc3cc(Cl)ccc23)c2ncccc2c1` returns the recorded outcome of this test.
Solution: NO

Problem: GET /call?item= `COC(=O)c1cc2c(=O)[nH]cc3c2c(n1)CCC3` returns the recorded outcome of this test.
Solution: NO

Problem: GET /call?item= `Cc1c(Cn2cc(COc3ccc(Br)cc3)nn2)c(C)c(Cn2cc(COc3ccc(Br)cc3)nn2)c(C)c1Cn1cc(COc2ccc(Br)cc2)nn1` returns the recorded outcome of this test.
Solution: NO
